Listed here are molecules together with their documented Stability of Plant-Derived Cannabinoid Compounds in AB Red.
Assay: Stability of cannabinoid compounds and Vitamin E components in Beverage 2 (AB Red) by LCMSMS
Type: physicochemical
Conditions: stored at 21-25° C., 2 days
Give the value in µg/mL but do not write µg/mL after it.

A selection of reference data follows.
C=C(C)[C@@H]1CCC(C)=C[C@H]1c1c(O)cc(CCC)cc1O [CBDV, cannabidivarin]    0.20
CCCc1cc(O)c2c(c1)OC(C)(C)[C@@H]1CCC(C)=C[C@@H]21 [THCV, delta-9-tetrahydrocannabivarin]    3.20
CCCCCc1cc2c(c(O)c1C(=O)O)[C@@H]1C=C(C)CC[C@H]1C(C)(C)O2 [D9 THCA, delta-9-tetrahydrocannabinolic acid]    1.30
CCCCCc1cc(O)c2c(c1)OC1(C)CCC3C1C2C3(C)C (stereo not drawn) [CBL, cannabicyclol]    0.50

The molecule listed as CCCCCc1cc(O)c2c(c1)OC(C)(C)[C@@H]1CCC(C)=C[C@@H]21 [D9 THC, delta-9-tetrahydrocannabinol, reference compound] shows Stability of Plant-Derived Cannabinoid Compounds in AB Red equal to 13.0

The molecule listed as CCCCCc1cc(O)c2c(c1)OC(C)(CCC=C(C)C)C=C2 (stereo not drawn) [CBC, cannabichromene] shows Stability of Plant-Derived Cannabinoid Compounds in AB Red equal to 0.28

The molecule listed as CCCCCc1cc(O)c2c(c1)OC(C)(C)c1ccc(C)cc1-2 [CBN, cannabinol] shows Stability of Plant-Derived Cannabinoid Compounds in AB Red equal to 2.83

The molecule listed as CCCCCc1cc(O)c(C/C=C(\C)CCC=C(C)C)c(O)c1 [CBG, cannabigerol] shows Stability of Plant-Derived Cannabinoid Compounds in AB Red equal to 4.61

The molecule listed as C=C(C)[C@@H]1CCC(C)=C[C@H]1c1c(O)cc(CCCCC)c(C(=O)O)c1O [CBDA, cannabidiolic acid] shows Stability of Plant-Derived Cannabinoid Compounds in AB Red equal to 1.65

###

Assay: Stability of cannabinoid compounds and Vitamin E components in Beverage 2 (AB Red) by LCMSMS
Type: physicochemical
Details: stored at 21-25° C., 330 days
Response field class: enum, chosen by comparing Stability of Plant-Derived Cannabinoid Compounds in AB Red against low bracket = under 0.5 µg/mL, middle bracket = from 0.5 µg/mL up to 3 µg/mL, high bracket = 3 µg/mL and over

### Prompt Form field 'band' for CCCCCc1cc2c(c(O)c1C(=O)O)[C@@H]1C=C(C)CC[C@H]1C(C)(C)O2 [D9 THCA, delta-9-tetrahydrocannabinolic acid]
### Response middle bracket

### Prompt Form field 'band' for CCCc1cc(O)c2c(c1)OC(C)(C)[C@@H]1CCC(C)=C[C@@H]21 [THCV, delta-9-tetrahydrocannabivarin]
### Response high bracket

### Prompt Form field 'band' for CCCCCc1cc(O)c(C/C=C(\C)CCC=C(C)C)c(O)c1
### Response high bracket

### Prompt Form field 'band' for C=C(C)[C@@H]1CCC(C)=C[C@H]1c1c(O)cc(CCC)cc1O
### Response low bracket

###

Assay: Stability of cannabinoid compounds and Vitamin E components in Beverage 1 (AB White) by LCMSMS
Assay type: physicochemical
Settings: AB White stored at 8° C.; 450 days
endpointLabel: Stability of Plant-Derived Cannabinoid Compounds in AB White, 8° C. (µg/mL)
Give the value in µg/mL but do not write µg/mL after it.

CCCc1cc(O)c2c(c1)OC(C)(C)[C@@H]1CCC(C)=C[C@@H]21 [THCV, delta-9-tetrahydrocannabivarin]    3.44
CCCCCc1cc2c(c(O)c1C(=O)O)[C@@H]1C=C(C)CC[C@H]1C(C)(C)O2 [D9 THCA, delta-9-tetrahydrocannabinolic acid]    0.923
C=C(C)[C@@H]1CCC(C)=C[C@H]1c1c(O)cc(CCCCC)c(C(=O)O)c1O [CBDA, cannabidiolic acid]    1.68

The compound listed as CCCCCc1cc(O)c2c(c1)OC1(C)CCC3C1C2C3(C)C (stereo not drawn) [CBL, cannabicyclol] shows Stability of Plant-Derived Cannabinoid Compounds in AB White, 8° C. equal to 0.532

The compound listed as CCCCCc1cc(O)c2c(c1)OC(C)(CCC=C(C)C)C=C2 (stereo not drawn) [CBC, cannabichromene] shows Stability of Plant-Derived Cannabinoid Compounds in AB White, 8° C. equal to 0.312

The compound listed as CCCCCc1cc(O)c2c(c1)OC(C)(C)[C@@H]1CCC(C)=C[C@@H]21 [D9 THC, delta-9-tetrahydrocannabinol, reference compound] shows Stability of Plant-Derived Cannabinoid Compounds in AB White, 8° C. equal to 11.80

The compound listed as CCCCCc1cc(O)c2c(c1)OC(C)(C)c1ccc(C)cc1-2 [CBN, cannabinol] shows Stability of Plant-Derived Cannabinoid Compounds in AB White, 8° C. equal to 2.70

The compound listed as C=C(C)[C@@H]1CCC(C)=C[C@H]1c1c(O)cc(CCC)cc1O [CBDV, cannabidivarin] shows Stability of Plant-Derived Cannabinoid Compounds in AB White, 8° C. equal to 0.145

The compound listed as CCCCCc1cc(O)c(C/C=C(\C)CCC=C(C)C)c(O)c1 [CBG, cannabigerol] shows Stability of Plant-Derived Cannabinoid Compounds in AB White, 8° C. equal to 4.68

###

Listed here are compounds together with their documented Stability of Plant-Derived Cannabinoid Compounds in Powder Concentrate.
Experiment: Stability of cannabinoid entourage and Vitamin E components of the powder concentrate by LCMSMS
Format: physicochemical
Conditions: powder stored at 21-25° C.; 510 days
Give the value in mg/g powder but do not write mg/g powder after it.

The compound listed as C=C(C)[C@@H]1CCC(C)=C[C@H]1c1c(O)cc(CCCCC)c(C(=O)O)c1O shows Stability of Plant-Derived Cannabinoid Compounds in Powder Concentrate equal to 0.411

The compound listed as CCCc1cc(O)c2c(c1)OC(C)(C)[C@@H]1CCC(C)=C[C@@H]21 [THCV, delta-9-tetrahydrocannabivarin] shows Stability of Plant-Derived Cannabinoid Compounds in Powder Concentrate equal to 0.696

The compound listed as CCCCCc1cc(O)c2c(c1)OC1(C)CCC3C1C2C3(C)C (stereo not drawn) shows Stability of Plant-Derived Cannabinoid Compounds in Powder Concentrate equal to 0.050

###

Listed here are compounds together with their documented Stability of Plant-Derived Cannabinoid Compounds in AB Red.
Assay: Stability of cannabinoid compounds and Vitamin E components in Beverage 2 (AB Red) by LCMSMS
Type: physicochemical
Conditions: stored at 8° C., 16 days
Give the value in µg/mL but do not write µg/mL after it.

A selection of reference data follows.
CCCCCc1cc(O)c(C/C=C(\C)CCC=C(C)C)c(O)c1    4.65
CCCCCc1cc(O)c2c(c1)OC1(C)CCC3C1C2C3(C)C (stereo not drawn)    0.502
CCCCCc1cc(O)c2c(c1)OC(C)(CCC=C(C)C)C=C2 (stereo not drawn)    0.283
CCCCCc1cc(O)c2c(c1)OC(C)(C)c1ccc(C)cc1-2    2.83
CCCc1cc(O)c2c(c1)OC(C)(C)[C@@H]1CCC(C)=C[C@@H]21 [THCV, delta-9-tetrahydrocannabivarin]    3.25
C=C(C)[C@@H]1CCC(C)=C[C@H]1c1c(O)cc(CCCCC)c(C(=O)O)c1O    1.69

The compound listed as C=C(C)[C@@H]1CCC(C)=C[C@H]1c1c(O)cc(CCC)cc1O shows Stability of Plant-Derived Cannabinoid Compounds in AB Red equal to 0.195

The compound listed as CCCCCc1cc(O)c2c(c1)OC(C)(C)[C@@H]1CCC(C)=C[C@@H]21 [D9 THC, delta-9-tetrahydrocannabinol, reference compound] shows Stability of Plant-Derived Cannabinoid Compounds in AB Red equal to 12.7

The compound listed as CCCCCc1cc2c(c(O)c1C(=O)O)[C@@H]1C=C(C)CC[C@H]1C(C)(C)O2 [D9 THCA, delta-9-tetrahydrocannabinolic acid] shows Stability of Plant-Derived Cannabinoid Compounds in AB Red equal to 1.31

###

Listed here are compounds together with their documented Stability of Plant-Derived Cannabinoid Compounds in AB White, 8° C..
Assay: Stability of cannabinoid compounds and Vitamin E components in Beverage 1 (AB White) by LCMSMS
Format: physicochemical
Settings: AB White stored at 8° C.; 0 days
Give the value in µg/mL but do not write µg/mL after it.

CCCCCc1cc(O)c2c(c1)OC1(C)CCC3C1C2C3(C)C (stereo not shown)    0.550
CCCCCc1cc(O)c(C/C=C(\C)CCC=C(C)C)c(O)c1    4.87
CCCCCc1cc(O)c2c(c1)OC(C)(C)[C@@H]1CCC(C)=C[C@@H]21 [D9 THC, delta-9-tetrahydrocannabinol, reference compound]    12.2

// next entry
The compound listed as C=C(C)[C@@H]1CCC(C)=C[C@H]1c1c(O)cc(CCCCC)cc1O [CBD, cannabidiol, reference compound] shows Stability of Plant-Derived Cannabinoid Compounds in AB White, 8° C. equal to 28.5
